Recorded pIC50, one value per entry.
experimental_system: T1, fibroblast growth factor 5 (FGF-5) (UniProt P12034 21-268, limits assumed)
T1 sequence (looked up): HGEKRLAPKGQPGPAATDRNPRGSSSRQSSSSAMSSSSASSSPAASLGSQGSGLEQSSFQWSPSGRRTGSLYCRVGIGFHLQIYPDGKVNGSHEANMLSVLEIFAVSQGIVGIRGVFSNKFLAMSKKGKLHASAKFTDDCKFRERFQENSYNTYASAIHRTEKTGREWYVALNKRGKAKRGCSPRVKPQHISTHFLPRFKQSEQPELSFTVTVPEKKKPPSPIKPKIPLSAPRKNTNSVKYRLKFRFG
assay_procedure: BioVeris ECL competition with a labeled competitor; grade ++ = apparent IC50 about 10-50 µM
pIC50: −log10 of the molar value.

binder	pIC50
FGFps2-Q-BBIt-FGF-5 (designed binder, also called BBIt-FGFps2-Q-A13I-L29P-F50T-V52A) DPDDESSKPCCDQCICTKSNPPQCRCSDMRPNSCHSACKSCACTWIDSTPCTCADITDFCYEPCKPSE	4.30 to 5.00

Can you look up the measured pIC50 of MM007-Q-BBIt-FGF-5 (designed binder, also called BBIt-MM007-Q-A13I-L29P-F50T-V52A) DPDDESSKPCCDQCICTKSNPPQCRCSDMRPNSCHSACKSCACRTQPYPLCTCADITDFCYEPCKPSE for me? 4.30 to 5.00
